- assay: In vivo assay of oral bioavailability (plasma AUC 0-7 h by LCMS/MS)
- Parameters: species or system male Sprague Dawley rats
- assay-setup: male, Sprague-Dawley [Crl:CD(SD)Br], 0.5 mg; Table 4′; oral, rat plasma
- Description: In column 1, the oral bioavailability of preferred type 5 inhibitors, expressed in ng/mL.h, was determined as described below in “Other Tests, A-In Vivo Assays of Bioavailability of Human Type 5 17β-HSD Inhibitors”. Higher number are desirable. […] The assay procedure was performed by analyzing, in duplicate, rat plasma samples spiked at six different Type 5 inhibitor concentrations (1, 2, 5, 10, 20 and 50 ng/mL). The lower limit of quantitation (LOQ) was established at 1.0 ng/mL. […]
Output Yes for AUC(0-t) not less than 200 ng·h/mL; output No otherwise.

Reference set (5 entries):
[[record]]
molecule = "COCCOc1cc2c(cc1Cl)C1CCC3(C)C(CCC34CCC(C)(C)C(=O)O4)C1CC2 (stereo not shown) [EM-1371-CS]"
qualitative_label = "No"

[[record]]
molecule = "CC1(C)CCC2(CCC3C4CCc5cc(O)c([N+](=O)[O-])cc5C4CCC32C)OC1=O (stereo not shown) [EM-1125-CS]"
qualitative_label = "No"

[[record]]
molecule = "CC1(C)CCC2(CCC3C4CCc5cc(O)c(C#N)cc5C4CCC32C)OC1=O (stereo not shown) [EM-01645]"
qualitative_label = "No"

[[record]]
molecule = "CC1(C)CC[C@@]2(CCC3C4CCc5cc(C(=O)O)ccc5C4CC[C@@]32C)OC1=O (stereo partly shown) [EM-1401]"
qualitative_label = "Yes"

[[record]]
molecule = "COc1cc2c(cc1C(F)(F)F)C1CCC3(C)C(CCC34CCC(C)(C)C(=O)O4)C1CC2 (stereo not shown) [EM-1409]"
qualitative_label = "No"


Ask | Does the molecule CC1(C)CCC2(CCC3C4CCc5c(cc(Cl)c(OS(C)(=O)=O)c5Cl)C4CCC32C)OC1=O (stereo not shown) [EM-1392-CS] have recorded AUC(0-t) that is 200 ng·h/mL or more?
Reply | Yes

Ask | Record: COc1ccc2c(c1)C(=O)CC1C2CC[C@@]2(C)C1CC[C@@]21CCC(C)(C)C(=O)O1 (stereo partly shown) [EM-1394]
Reply | Yes

Ask | Record: CC1(C)CCC2(CCC3C4CCc5c(cc(Cl)c(O)c5Cl)C4CCC32C)OC1=O (stereo not shown) [EM-1391-CS]
Reply | No

Ask | Record: CC1(C)CC[C@@]2(CCC3C4CCc5cc(F)ccc5C4CC[C@@]32C)OC1=O (stereo partly shown) [EM-1157-CS]
Reply | No

* * *

Please provide measured % Inhibition Estrogen Receptor E^−8 for the entries that follow.
- study-target: estrogen receptor (Rattus norvegicus, UniProt P06211)
- Construct: from tissue; host or cells: uterine cytosol of gonadectomized female Sprague-Dawley rats
- Sequence (P06211 whole entry): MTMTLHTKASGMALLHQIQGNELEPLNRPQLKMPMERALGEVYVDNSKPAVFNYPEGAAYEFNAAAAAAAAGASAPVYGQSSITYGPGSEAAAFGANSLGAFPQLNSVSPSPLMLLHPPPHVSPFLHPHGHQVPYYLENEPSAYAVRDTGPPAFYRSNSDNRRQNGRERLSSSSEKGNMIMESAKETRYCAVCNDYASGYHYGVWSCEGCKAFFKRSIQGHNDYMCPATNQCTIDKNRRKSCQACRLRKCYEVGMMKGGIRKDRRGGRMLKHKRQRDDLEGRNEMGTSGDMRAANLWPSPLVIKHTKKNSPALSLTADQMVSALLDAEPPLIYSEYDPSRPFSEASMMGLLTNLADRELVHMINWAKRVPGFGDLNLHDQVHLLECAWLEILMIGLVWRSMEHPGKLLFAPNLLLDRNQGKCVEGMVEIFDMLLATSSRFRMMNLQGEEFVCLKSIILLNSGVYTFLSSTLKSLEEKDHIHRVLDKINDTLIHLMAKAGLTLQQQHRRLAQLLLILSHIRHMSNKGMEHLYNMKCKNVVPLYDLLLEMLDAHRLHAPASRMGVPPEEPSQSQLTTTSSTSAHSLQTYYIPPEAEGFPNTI
- assay: Estrogen receptor (ER) assay: inhibition of [3H]E2 binding, uterine cytosol
- assay-setup: Table 4′; E^−8
Answer with the value and then the unit.

Example entries begin here.
[[record]]
compound = "CC1(C)CCC2(CCC3C4CCc5c(cc(Cl)c(O)c5Cl)C4CCC32C)OC1=O (stereo not shown)"
result = "0%"

[[record]]
compound = "CC1(C)CCC2(CCC3C4CCc5ccccc5C4CCC32C)OC1=O (stereo not shown)"
result = "0%"

[[record]]
compound = "CCOc1ccc2c(c1)CCC1C2CC[C@@]2(C)C1CC[C@@]21CCC(C)(C)C(=O)O1 (stereo partly shown)"
result = "2%"


Hello, I would appreciate it if you could give % Inhibition Estrogen Receptor E^−8 for each entry below.
1. COc1ccc2c(c1)C(=O)CC1C2CC[C@@]2(C)C1CC[C@@]21CCC(C)(C)C(=O)O1 (stereo partly shown)
2. COc1ccc2c(c1)C(=O)CC1C3CCC4(CCC(C)(C)C(=O)O4)C3(C)CCC21O (stereo not shown)
3. CN(C)C(=O)c1ccc2c(c1)CCC1C2CCC2(C)C1CCC21CCC(C)(C)C(=O)O1 (stereo not shown)
4. C[C@]12CCC3c4cc([N+](=O)[O-])c(O)cc4CCC3C1CC[C@@]21CCCC(=O)O1 (stereo partly shown)

Reply |
1. 4%
2. 3%
3. 0%
4. 0%

Hello, I would appreciate it if you could give % Inhibition Estrogen Receptor E^−8 for each entry below.
1. CC1CCC2(CCC3C4CCc5ccccc5C4CCC32C)OC1=O (stereo not shown)
2. CC1(C)CC[C@@]2(CCC3C4CCc5cc6oncc6cc5C4CC[C@@]32C)OC1=O (stereo partly shown)
3. COCCOc1ccc2c(c1)C(=O)CC1C2CCC2(C)C1CCC21CCC(C)(C)C(=O)O1 (stereo not shown)

Reply |
1%
2%
0%
